- targetOrTestSystem: T1, His-tagged CEACAM1 (human, UniProt P13688 35-428)
- T1 construct: 45 kDa SPR analyte; also called CEACAM1-HIS; CEACAM1 analyte
- T1 sequence: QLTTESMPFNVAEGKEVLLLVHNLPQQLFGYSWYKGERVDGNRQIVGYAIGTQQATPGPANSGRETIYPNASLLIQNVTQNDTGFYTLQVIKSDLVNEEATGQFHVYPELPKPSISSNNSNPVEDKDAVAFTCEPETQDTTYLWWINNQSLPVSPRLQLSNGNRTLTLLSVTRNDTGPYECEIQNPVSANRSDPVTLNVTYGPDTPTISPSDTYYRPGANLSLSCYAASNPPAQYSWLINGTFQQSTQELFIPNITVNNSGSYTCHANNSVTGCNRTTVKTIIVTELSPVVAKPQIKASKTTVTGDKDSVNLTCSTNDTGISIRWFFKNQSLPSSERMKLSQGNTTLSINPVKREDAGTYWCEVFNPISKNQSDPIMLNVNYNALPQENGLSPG
- measurementProtocol: SPR single-cycle, supernatant IgG captured
# relative KD to parent listing for each entry below
No unit in the answer, only the number.

VH1/CP08D02 (antibody, IgG4, V domains shown, IgG4 (S241P), kappa; also called Parent VH/CP08D02) VH: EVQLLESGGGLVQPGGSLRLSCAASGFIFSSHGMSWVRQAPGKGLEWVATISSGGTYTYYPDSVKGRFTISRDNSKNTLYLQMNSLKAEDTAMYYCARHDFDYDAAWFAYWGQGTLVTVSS VL: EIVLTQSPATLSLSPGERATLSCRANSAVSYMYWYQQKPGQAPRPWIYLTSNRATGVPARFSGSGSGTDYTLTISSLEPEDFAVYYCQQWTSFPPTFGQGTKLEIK ... 1.2
CP09E05/CP08G09 (antibody, IgG4, V domains shown, IgG4 (S241P), kappa) VH: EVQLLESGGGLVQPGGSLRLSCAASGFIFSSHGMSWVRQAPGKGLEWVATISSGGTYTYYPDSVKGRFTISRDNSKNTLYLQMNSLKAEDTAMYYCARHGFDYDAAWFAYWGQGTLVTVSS VL: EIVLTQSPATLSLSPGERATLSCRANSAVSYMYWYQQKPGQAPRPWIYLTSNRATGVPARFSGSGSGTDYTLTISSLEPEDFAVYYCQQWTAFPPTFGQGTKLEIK ... 1.8

Return reported relative KD to parent. Input binder: CP09B03/CP08E01 (antibody, IgG4, V domains shown, IgG4 (S241P), kappa) VH: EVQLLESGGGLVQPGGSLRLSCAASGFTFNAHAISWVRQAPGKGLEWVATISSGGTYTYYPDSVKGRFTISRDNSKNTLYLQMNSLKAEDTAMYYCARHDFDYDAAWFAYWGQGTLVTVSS VL: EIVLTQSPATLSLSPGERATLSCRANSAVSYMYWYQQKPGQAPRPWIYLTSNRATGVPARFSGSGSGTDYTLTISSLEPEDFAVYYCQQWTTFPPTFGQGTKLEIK
2.2
